Measured metric: pIC50
Formally, pIC50 is defined as -log10 of the concentration c, with c in mol/L.

query: Give recorded pIC50 with Xanthine oxidase (XOD) (Bos taurus, UniProt P80457) for the following compound: COc1ccc2c(c1OC)CN1CCc3cc4c(cc3C1=C2)OCO4 [DHB, Dihydroberberine]
Sequence (P80457 2-1332): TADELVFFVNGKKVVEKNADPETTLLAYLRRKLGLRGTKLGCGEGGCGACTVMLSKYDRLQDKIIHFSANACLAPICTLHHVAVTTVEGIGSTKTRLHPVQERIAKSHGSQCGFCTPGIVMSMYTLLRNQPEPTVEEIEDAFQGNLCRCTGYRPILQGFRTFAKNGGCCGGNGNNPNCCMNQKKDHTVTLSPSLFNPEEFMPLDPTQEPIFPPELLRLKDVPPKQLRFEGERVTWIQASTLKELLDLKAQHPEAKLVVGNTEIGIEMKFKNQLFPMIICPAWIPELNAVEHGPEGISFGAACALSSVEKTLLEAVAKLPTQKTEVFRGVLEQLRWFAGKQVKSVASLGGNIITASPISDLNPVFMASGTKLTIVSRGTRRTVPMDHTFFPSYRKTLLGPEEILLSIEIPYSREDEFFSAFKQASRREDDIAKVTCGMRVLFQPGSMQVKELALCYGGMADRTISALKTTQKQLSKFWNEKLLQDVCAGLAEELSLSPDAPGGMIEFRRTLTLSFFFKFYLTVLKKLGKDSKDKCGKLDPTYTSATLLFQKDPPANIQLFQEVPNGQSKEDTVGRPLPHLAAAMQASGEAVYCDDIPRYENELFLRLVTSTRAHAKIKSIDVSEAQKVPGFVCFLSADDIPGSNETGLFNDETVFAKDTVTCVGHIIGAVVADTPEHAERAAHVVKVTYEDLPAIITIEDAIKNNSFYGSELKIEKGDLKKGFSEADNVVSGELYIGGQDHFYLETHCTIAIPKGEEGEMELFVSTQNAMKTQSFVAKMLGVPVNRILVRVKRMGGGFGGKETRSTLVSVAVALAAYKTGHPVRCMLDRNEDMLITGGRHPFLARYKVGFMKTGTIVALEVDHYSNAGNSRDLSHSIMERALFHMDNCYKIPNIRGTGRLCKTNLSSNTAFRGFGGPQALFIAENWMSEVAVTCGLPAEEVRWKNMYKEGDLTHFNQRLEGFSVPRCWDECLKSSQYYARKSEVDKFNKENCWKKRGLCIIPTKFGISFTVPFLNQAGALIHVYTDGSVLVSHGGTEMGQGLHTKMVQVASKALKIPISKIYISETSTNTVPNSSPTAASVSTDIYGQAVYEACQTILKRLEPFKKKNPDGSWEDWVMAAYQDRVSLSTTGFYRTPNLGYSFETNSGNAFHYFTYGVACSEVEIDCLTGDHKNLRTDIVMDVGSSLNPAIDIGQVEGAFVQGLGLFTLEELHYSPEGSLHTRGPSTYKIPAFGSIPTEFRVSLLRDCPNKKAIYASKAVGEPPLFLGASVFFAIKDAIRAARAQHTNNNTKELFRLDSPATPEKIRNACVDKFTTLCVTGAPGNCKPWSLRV
result: 4.46
